- assayMethodText: Volume of distribution at steady state in Wistar Han rat at 1 mg/kg, iv via 30 mins infusion followed by 2 day washout and re-dosed via oral gavage at 3 mg/kg
- Assay type: ADME, organism-based
- experimentalParameters: in vivo, read-out: Vdss
measuredAttribute: Vd

Given Cc1cc(C)n(-c2cccc([C@H](CC(=O)O)CN3CC[C@@H](CCc4ccc5c(n4)NCCC5)C3)c2)n1 [GSK-3008348 FREE BASE] , state its recorded Vd.
1.8 to 2.3 L/kg

###

- assayMethodText: physchem
- experimentalParameters: buffer, pH 7.4, logD
Exercise: state measured logD for each of the compounds provided.
Give bare numbers.

Observe how each entry below is paired with its result.
{"compound": "O=C(O)C[C@H](CN1CC[C@@H](CCc2ccc3c(n2)NCCC3)C1)c1cccc(Br)c1", "observed": 3.15}
{"compound": "O=C(O)C[C@@H](CN1CC[C@@H](CCc2ccc3c(n2)NCCC3)C1)c1cccc(N2CCOCC2)c1", "observed": 1.99}
{"compound": "Cc1cnn(-c2cccc([C@H](CC(=O)O)CN3CC[C@@H](CCc4ccc5c(n4)NCCC5)C3)c2)c1", "observed": 3.01}
{"compound": "O=C(O)CC(CN1CC[C@@H](CCc2ccc3c(n2)NCCC3)C1)c1cccc(-n2ccnc2)c1 (mixture of isomers)", "observed": 1.97}
{"compound": "Cc1cnn(C)c1-c1cccc([C@H](CC(=O)O)CN2CC[C@@H](CCc3ccc4c(n3)NCCC4)C2)c1", "observed": 2.72}
{"compound": "O=C(O)C[C@H](CN1CC[C@@H](CCc2ccc3c(n2)NCCC3)C1)c1cccc(N2CCOCC2)c1", "observed": 2.27}
{"compound": "O=C(O)C[C@H](CN1CC[C@@H](CCc2ccc3c(n2)NCCC3)C1)c1cc(C2CC2)cc(N2CCOCC2)c1", "observed": 3.07}
{"compound": "Cc1nc(C)n(-c2cccc([C@H](CC(=O)O)CN3CC[C@@H](CCc4ccc5c(n4)NCCC5)C3)c2)n1", "observed": 1.66}
{"compound": "O=C(O)C[C@H](CN1CC[C@@H](CCc2ccc3c(n2)NCCC3)C1)c1cccc(-n2cncn2)c1", "observed": 1.95}
{"compound": "Cc1cn(C)c(-c2cccc([C@H](CC(=O)O)CN3CC[C@@H](CCc4ccc5c(n4)NCCC5)C3)c2)n1", "observed": 2.09}

For the 5 compounds below, give their logD values.
1. Cc1nncn1-c1cccc([C@H](CC(=O)O)CN2CC[C@@H](CCc3ccc4c(n3)NCCC4)C2)c1
2. O=C(O)C[C@H](CN1CC[C@@H](CCc2ccc3c(n2)NCCC3)C1)c1cccc(-n2cccn2)c1
3. O=C(O)C[C@H](CN1CC[C@@H](CCc2ccc3c(n2)NCCC3)C1)c1cccc(-n2ccnn2)c1
4. Cc1cc(C)n(-c2cc([C@H](CC(=O)O)CN3CC[C@@H](CCc4ccc5c(n4)NCCC5)C3)cc(N3CCOCC3)c2)n1
5. O=C(O)C[C@H](CN1CC[C@@H](CCc2ccc3c(n2)NCCC3)C1)c1cccc(-n2cnnc2)c1

1: 1.77; 2: 2.4; 3: 1.75; 4: 2.73; 5: 1.05

Please report the recorded logD for O=C(O)C[C@H](CN1CC[C@@H](CCc2ccc3c(n2)NCCC3)C1)c1cccc(C2CCOC2)c1 (stereo in doubt; 28xI1) .
2.56

###

- assayMethodText: Cmax in Wistar Han rat nebulized with dose level of 0.227 mg/kg
- Type: ADME, organism-based
- Parameters: dose 0.227 mg/kg
- experimentalParameters: in vivo, inhaled or intranasal
measuredAttribute: Cmax

Fill in the blank: the reported Cmax of Cc1cc(C)n(-c2cccc([C@H](CC(=O)O)CN3CC[C@@H](CCc4ccc5c(n4)NCCC5)C3)c2)n1 [GSK-3008348 FREE BASE] is ____.
30 to 53 ng/mL

###

Could you please report measured logD for the items listed next?
- assayMethodText: physchem
- experimentalParameters: buffer, pH 7.4, logD
Numbers only.

{"entrySmiles": "O=C(O)C[C@H](CN1CC[C@@H](CCc2ccc3c(n2)NCCC3)C1)c1cccc(OC2COC2)c1", "logD": 2.07}
{"entrySmiles": "Cc1cc(-c2cccc([C@H](CC(=O)O)CN3CC[C@@H](CCc4ccc5c(n4)NCCC5)C3)c2)[nH]n1", "logD": 2.53}
{"entrySmiles": "Cc1nc(C)c(-c2cccc([C@H](CC(=O)O)CN3CC[C@@H](CCc4ccc5c(n4)NCCC5)C3)c2)[nH]1", "logD": 1.77}

Could you now consider this next molecule?
What logD value was documented for this molecule, `O=C(O)C[C@H](CN1CC[C@@H](CCc2ccc3c(n2)NCCC3)C1)c1cccc(C2CCOCC2)c1` ?
2.62

###

I'd be grateful if you could share measured IC50 for these entries.
- experimentalTarget: Voltage-gated inwardly rectifying potassium channel KCNH2 (Homo sapiens, UniProt Q12809)
- Sequence (Q12809 whole entry): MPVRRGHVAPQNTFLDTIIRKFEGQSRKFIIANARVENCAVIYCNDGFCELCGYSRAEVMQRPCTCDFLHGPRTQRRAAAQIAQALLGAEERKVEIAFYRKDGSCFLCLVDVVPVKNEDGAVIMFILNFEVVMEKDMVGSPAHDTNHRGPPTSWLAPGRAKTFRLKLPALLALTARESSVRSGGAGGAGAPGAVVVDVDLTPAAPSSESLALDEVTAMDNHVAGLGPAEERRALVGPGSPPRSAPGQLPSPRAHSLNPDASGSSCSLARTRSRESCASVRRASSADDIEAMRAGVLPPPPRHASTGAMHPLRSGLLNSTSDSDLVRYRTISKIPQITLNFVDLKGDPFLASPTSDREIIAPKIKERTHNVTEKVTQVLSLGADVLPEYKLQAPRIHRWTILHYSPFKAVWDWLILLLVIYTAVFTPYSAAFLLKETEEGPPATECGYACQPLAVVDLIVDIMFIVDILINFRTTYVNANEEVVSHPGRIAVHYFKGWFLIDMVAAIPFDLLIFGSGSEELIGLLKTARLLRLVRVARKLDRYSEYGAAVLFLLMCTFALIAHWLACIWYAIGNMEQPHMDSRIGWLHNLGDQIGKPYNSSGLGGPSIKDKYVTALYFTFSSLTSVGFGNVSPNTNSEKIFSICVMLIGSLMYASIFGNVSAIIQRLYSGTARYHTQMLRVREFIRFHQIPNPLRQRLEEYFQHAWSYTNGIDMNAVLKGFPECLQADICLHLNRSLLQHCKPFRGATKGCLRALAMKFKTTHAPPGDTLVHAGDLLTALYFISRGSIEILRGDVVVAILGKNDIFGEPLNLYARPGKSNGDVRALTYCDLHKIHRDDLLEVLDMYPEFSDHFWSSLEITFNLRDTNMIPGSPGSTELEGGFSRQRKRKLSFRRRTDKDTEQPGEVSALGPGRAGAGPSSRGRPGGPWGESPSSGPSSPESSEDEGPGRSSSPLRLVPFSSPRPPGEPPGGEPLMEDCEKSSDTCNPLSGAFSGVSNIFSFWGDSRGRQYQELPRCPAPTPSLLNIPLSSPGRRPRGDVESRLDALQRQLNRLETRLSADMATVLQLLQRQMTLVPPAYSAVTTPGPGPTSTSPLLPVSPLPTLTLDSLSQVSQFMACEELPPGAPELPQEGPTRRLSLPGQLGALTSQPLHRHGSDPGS
Give bare numbers, in µM.

{"compound": "O=C(O)C[C@H](CN1CC[C@@H](CCc2ccc3c(n2)NCCC3)C1)c1cccc(C2CCOC2)c1 (stereo in doubt; 28xI2)", "IC50 [µM]": 31.6}

// below: IC50 requested for another compound
So what does the record say about IC50 for `O=C(O)C[C@H](CN1CC[C@@H](CCc2ccc3c(n2)NCCC3)C1)c1cccc(-n2cccn2)c1` ?
0.794

###

IC50 data for Voltage-gated inwardly rectifying potassium channel KCNH2 (Homo sapiens) follow.

{"molecule": "Cc1cc(-c2cccc([C@H](CC(=O)O)CN3CC[C@@H](CCc4ccc5c(n4)NCCC5)C3)c2)[nH]n1", "measuredAttribute": "IC50", "observed": "> 50.1 µM"}
{"molecule": "O=C(O)C[C@H](CN1CC[C@@H](CCc2ccc3c(n2)NCCC3)C1)c1cccc(C2CCOC2)c1 (stereo in doubt; 28xI1)", "measuredAttribute": "IC50", "observed": "39.8 µM"}
{"molecule": "Cc1cc(C)n(-c2cc([C@H](CC(=O)O)CN3CC[C@@H](CCc4ccc5c(n4)NCCC5)C3)cc(N3CCOCC3)c2)n1", "measuredAttribute": "IC50", "observed": "> 63.1 µM"}

Please look at the items below and tell me IC50 for each one, in order.
1. Cc1cnn(-c2cccc([C@H](CC(=O)O)CN3CC[C@@H](CCc4ccc5c(n4)NCCC5)C3)c2)c1
2. O=C(O)C[C@H](CN1CC[C@@H](CCc2ccc3c(n2)NCCC3)C1)c1cccc(-n2cccn2)c1
3. Cc1nc(C)c(-c2cccc([C@H](CC(=O)O)CN3CC[C@@H](CCc4ccc5c(n4)NCCC5)C3)c2)[nH]1
4. Cc1nc(C)n(-c2cccc([C@H](CC(=O)O)CN3CC[C@@H](CCc4ccc5c(n4)NCCC5)C3)c2)n1
5. O=C(O)C[C@H](CN1CC[C@@H](CCc2ccc3c(n2)NCCC3)C1)c1cccc(-n2cnnc2)c1

10 µM
> 50.1 µM
> 50.1 µM
> 50.1 µM
> 50.1 µM

###

- assayMethodText: Tmax in Beagle dog blood at 1 mg/kg, iv dosed via 60 mins infusion followed by 6 days washout and re-dosed via oral gavage at 1 mg/kg
- Assay type: ADME, organism-based, Canis lupus familiaris
- experimentalParameters: whole blood
measuredAttribute: Tmax

Request the reported Tmax associated with Cc1cc(C)n(-c2cccc([C@H](CC(=O)O)CN3CC[C@@H](CCc4ccc5c(n4)NCCC5)C3)c2)n1 [GSK-3008348 FREE BASE]
15 to 30 min

###

Voltage-gated inwardly rectifying potassium channel KCNH2 (Homo sapiens) measurements of IC50, listed per entry.

Past entries and their recorded results:
{"compound": "Cc1cn(C)c(-c2cccc([C@H](CC(=O)O)CN3CC[C@@H](CCc4ccc5c(n4)NCCC5)C3)c2)n1", "measuredAttribute": "IC50", "observed": "> 31.6 µM"}
{"compound": "O=C(O)CC(CN1CC[C@@H](CCc2ccc3c(n2)NCCC3)C1)c1cccc(-n2ccnc2)c1 (mixture of isomers)", "measuredAttribute": "IC50", "observed": "> 31.6 µM"}
{"compound": "O=C(O)C[C@H](CN1CC[C@@H](CCc2ccc3c(n2)NCCC3)C1)c1cccc(-n2ccnn2)c1", "measuredAttribute": "IC50", "observed": "> 31.6 µM"}

Hi, could you look up IC50 for each item in my list?
1. Cc1nc(C)n(-c2cccc([C@H](CC(=O)O)CN3CC[C@@H](CCc4ccc5c(n4)NCCC5)C3)c2)n1
2. Cc1nncn1-c1cccc([C@H](CC(=O)O)CN2CC[C@@H](CCc3ccc4c(n3)NCCC4)C2)c1
3. O=C(O)C[C@H](CN1CC[C@@H](CCc2ccc3c(n2)NCCC3)C1)c1cccc(C2CCOC2)c1 (stereo in doubt; 28xI1)
4. Cc1cc(-c2cccc([C@H](CC(=O)O)CN3CC[C@@H](CCc4ccc5c(n4)NCCC5)C3)c2)[nH]n1

1: > 31.6 µM; 2: > 31.6 µM; 3: 12.6 µM; 4: 25.1 µM

# query: IC50 | item `Cc1nc(C)c(-c2cccc([C@H](CC(=O)O)CN3CC[C@@H](CCc4ccc5c(n4)NCCC5)C3)c2)[nH]1` | system: Voltage-gated inwardly rectifying potassium channel KCNH2 (Homo sapiens)
> 31.6 µM
